FYI, the data here is from BindingDB's records for doi:10.1111/j.1747-0285.2010.01036.x.

- Target System: Serum paraoxonase/arylesterase 1 (Homo sapiens, UniProt P27169)
- Sequence (P27169 whole entry): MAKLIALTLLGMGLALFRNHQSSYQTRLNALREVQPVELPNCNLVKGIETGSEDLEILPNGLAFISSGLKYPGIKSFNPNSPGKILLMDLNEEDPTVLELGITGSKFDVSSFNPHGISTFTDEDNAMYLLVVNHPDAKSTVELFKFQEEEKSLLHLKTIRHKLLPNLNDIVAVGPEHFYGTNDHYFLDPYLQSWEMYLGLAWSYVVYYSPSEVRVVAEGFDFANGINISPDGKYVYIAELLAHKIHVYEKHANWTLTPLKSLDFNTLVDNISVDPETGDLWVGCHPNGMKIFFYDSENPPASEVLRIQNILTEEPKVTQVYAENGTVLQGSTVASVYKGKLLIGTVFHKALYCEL
- Assay Explanation: In Vitro Inhibtion Assay
As shown below, each of these compounds has a reported pIC50 value.
Please treat pIC50 as minus the base-10 logarithm of the molar concentration.

| Compound | Target System | Reported |
| --- | --- | --- |
| CC(=O)Nc1nnc(S(N)(=O)=O)s1 [Acetazolamide, AAZ] | Serum paraoxonase/arylesterase 1 (Homo sapiens, UniProt P27169) | 3.10 |
| NS(=O)(=O)c1cc(C(=O)O)c(NCc2ccco2)cc1Cl | Serum paraoxonase/arylesterase 1 (Homo sapiens, UniProt P27169) | 3.44 |
| Nc1nnc(S(N)(=O)=O)s1 [1,3,4-thiadiazole-2-sulfonamide 15] | Serum paraoxonase/arylesterase 1 (Homo sapiens, UniProt P27169) | 2.91 |
| CC(=O)NS(=O)(=O)c1ccc(N)cc1 [Cetamide] | Serum paraoxonase/arylesterase 1 (Homo sapiens, UniProt P27169) | 3.74 |

// returns reported pIC50 for input NCc1ccc(S(N)(=O)=O)cc1 [aromatic sulfonamide compound 6]
3.72

----------
As shown below, each of these compounds has a reported pKi value.
- Target System: Serum paraoxonase/arylesterase 1 (Homo sapiens, UniProt P27169)
- Assay Explanation: In Vitro Inhibtion Assay
Please treat pKi as minus the base-10 logarithm of the molar concentration.

Please review the entries below; each comes with its answer.
| Compound | pKi |
| --- | --- |
| CC(=O)Nc1nnc(S(N)(=O)=O)s1 [Acetazolamide, AAZ] | 3.13 |
| Nc1nnc(S(N)(=O)=O)s1 [1,3,4-thiadiazole-2-sulfonamide 15] | 2.70 |
| CC(=O)NS(=O)(=O)c1ccc(N)cc1 [Cetamide] | 4.07 |
| NCc1ccc(S(N)(=O)=O)cc1 [aromatic sulfonamide compound 6] | 3.47 |

// returns reported pKi for input NS(=O)(=O)c1cc(C(=O)O)c(NCc2ccco2)cc1Cl
3.15
